In this section we review reported clearance values for a set of compounds.
test: PK, intravenous administration; type: in vivo; conditions: rat, plasma, male Sprague Dawley rats, dose about 1 mg/kg
Give your result in mL/min/kg as a bare value.

O=S(=O)(c1nnc(Nc2c3c(cc4c2CCC4)CCC3)[nH]1)N1CCC2(CCCN2)CC1 [Example 268]: 95.3
COc1cc(-c2cc(F)cc(C(C)C)c2Oc2nnc(S(=O)(=O)N3CCC(CN(C)C)C3)[nH]2)ccn1 (stereo not shown) [Example 69]: 65.5
CNC1CCN(S(=O)(=O)c2nnc(Nc3c4c(cc5c3CCC5)CCC4)[nH]2)CC1 [Example 130]: 32.8
CN(C)CCCS(=O)(=O)c1nnc(Nc2c3c(cc4c2CCC4)CCC3)[nH]1 [Example 48]: 85
CN1CCC2(C1)CN(S(=O)(=O)c1nnc(Nc3c4c(cc5c3CCC5)CCC4)[nH]1)C2 [Example 274]: 61.6
COc1cc(-c2ccc3c(c2Nc2nnc(S(=O)(=O)N4CC5(CCN(C)C5)C4)[nH]2)CCO3)ccn1 [Example 214]: 78.1

Record COc1cc(-c2ccc3c(c2Nc2nnc(S(=O)(=O)c4ccccc4C#N)[nH]2)CCC3)ccn1 [Example 310] , field clearance: 75.4

Record CS(=O)(=O)c1nnc(Nc2c3c(cc4c2CCC4)CCC3)[nH]1 [Example 75] , field clearance: 16.7

Record CS(=O)(=O)c1nnc(Nc2c(-c3ccnc(OC4CCCOC4)c3)ccc3c2CCC3)[nH]1 (stereo not shown) [Example 236] , field clearance: 5.28

Record CC(C)c1cc(F)cc(C(C)C)c1Nc1nnc(S(=O)(=O)N2CCC(N(C)C)CC2)[nH]1 [Example 303] , field clearance: 80.7

* * *

Target: NLRP3 (Homo sapiens)
Sequence (Q96P20 whole entry): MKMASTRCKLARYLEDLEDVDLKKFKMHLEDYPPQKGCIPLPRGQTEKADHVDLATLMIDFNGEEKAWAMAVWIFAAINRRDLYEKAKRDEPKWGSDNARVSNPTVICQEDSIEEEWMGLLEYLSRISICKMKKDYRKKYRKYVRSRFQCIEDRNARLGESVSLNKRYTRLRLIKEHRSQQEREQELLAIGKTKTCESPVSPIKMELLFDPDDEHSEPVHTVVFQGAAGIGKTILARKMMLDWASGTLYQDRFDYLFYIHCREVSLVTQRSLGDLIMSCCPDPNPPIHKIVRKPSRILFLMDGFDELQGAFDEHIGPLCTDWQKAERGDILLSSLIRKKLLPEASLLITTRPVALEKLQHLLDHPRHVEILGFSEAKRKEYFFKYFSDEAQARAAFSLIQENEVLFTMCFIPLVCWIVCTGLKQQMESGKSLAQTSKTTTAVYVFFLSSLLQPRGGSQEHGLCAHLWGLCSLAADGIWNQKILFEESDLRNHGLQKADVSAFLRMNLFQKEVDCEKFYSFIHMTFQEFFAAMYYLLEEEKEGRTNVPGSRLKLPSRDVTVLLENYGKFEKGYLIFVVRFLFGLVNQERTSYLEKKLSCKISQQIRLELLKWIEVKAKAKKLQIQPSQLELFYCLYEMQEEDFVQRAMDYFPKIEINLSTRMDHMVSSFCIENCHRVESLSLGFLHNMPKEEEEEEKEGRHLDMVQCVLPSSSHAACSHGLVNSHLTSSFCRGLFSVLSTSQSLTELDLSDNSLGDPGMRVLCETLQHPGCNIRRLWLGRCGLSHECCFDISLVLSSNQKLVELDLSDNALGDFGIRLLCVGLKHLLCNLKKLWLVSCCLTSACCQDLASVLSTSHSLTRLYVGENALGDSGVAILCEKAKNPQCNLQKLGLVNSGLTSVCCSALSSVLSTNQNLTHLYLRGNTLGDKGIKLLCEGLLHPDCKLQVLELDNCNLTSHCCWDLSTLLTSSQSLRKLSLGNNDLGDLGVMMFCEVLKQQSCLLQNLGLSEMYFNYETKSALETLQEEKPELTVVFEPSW
Assay: THP-1 cells pyroptosis assay
Format: cell-based
Parameters: Seed THP-1 cells (25,000 cells/well) containing 1.0 μg/ml LPS; host or cells: THP-1
Conditions: LPS 1.0 μg/ml, nigericin 5 μM, resazurin readout, 10 μM top dose (Example 2: top dose of 30 μM)
Method: THP-1 cells (ATCC #TIB-202) were grown in RPMI containing L-glutamine (Gibco #11835) supplemented with imM sodium pyruvate (Sigma #S8636) and penicillin (100 units/ml)/streptomycin (0.1 mg/ml) (Sigma #P4333) in 10% Fetal Bovine Serum (FBS) (Sigma #F0804). […] The cells were then counted and viability (>90%) checked by Trypan blue (Sigma #T8154). […] The following method step-by-step assay was followed for compound screening. • 1. […] Plates were read in an Envision reader at Ex 560 nm and Em 590 nm • 9. […]
pIC50: −log10 of the molar value.
Measured Parameter: pIC50

Below: 3 compounds and their reported pIC50.
Cc1cc2c(c(Nc3nnc(S(C)(=O)=O)[nH]3)c1-c1ccnc(OC3CCN(C)CC3)c1)CCC2: ≥ 6.00
CN1CC2(CC1=O)CN(S(=O)(=O)c1nnc(Nc3c4c(cc5c3CCC5)CCC4)[nH]1)C2: ≥ 5.30
[2H]C([2H])([2H])Oc1cc(-c2ccc3c(c2Nc2nnc(S(=O)(=O)N4CCC(N(C)C)CC4)[nH]2)CCO3)ccn1: ≥ 6.30

Record O=C1CC2(CN1)CN(S(=O)(=O)c1nnc(Nc3c4c(cc5c3CCC5)CCC4)[nH]1)C2 , field pIC50: ≥ 5.00

Record CCN(CC)CCNS(=O)(=O)c1nnc(Nc2c3c(cc4c2CCC4)CCC3)[nH]1 , field pIC50: ≥ 6.30

Record O=S(=O)(c1nnc(Nc2c3c(cc4c2CCC4)CCC3)[nH]1)N1CCC2(CCOC2)C1 (stereo not drawn) , field pIC50: ≥ 5.30

* * *

assay: PK, intravenous administration; assay type: in vivo; conditions: rat, plasma, male Sprague Dawley rats, dose about 1 mg/kg
In this section we review reported half-life values for a set of compounds.
Give your result in h as a bare value.

Record CN(C)C1CCN(S(=O)(=O)c2nnc(Nc3c4c(c(Cl)c5c3CCC5)CCC4)[nH]2)CC1 [Example 300] , field half-life: 2.65

Record CS(=O)(=O)c1nnc(Nc2c(-c3ccnc(OC4CCCOC4)c3)ccc3c2CCC3)[nH]1 (stereo not drawn) [Example 236] , field half-life: 0.891

Record COc1cc(-c2cc(F)cc(C(C)C)c2Nc2nnc(S(=O)(=O)c3ccccc3)[nH]2)ccn1 [Example 45] , field half-life: 1.2

* * *

In this section we review reported pIC50 values for a set of compounds.
target: UniProt:Q96P20; experiment: THP-1 cells pyroptosis assay; type: cell-based; set-up: Seed THP-1 cells (25,000 cells/well) containing 1.0 μg/ml LPS; host or cells: THP-1; conditions: LPS 1.0 μg/ml, nigericin 5 μM, resazurin readout, 10 μM top dose (Example 2: top dose of 30 μM)
pIC50: −log10 of the molar value.

Below: 2 compounds and their reported pIC50.
O=S(=O)(CCCN1CCOCC1)c1nnc(Nc2c3c(cc4c2CCC4)CCC3)[nH]1 [Example 50]: ≥ 5.30
CN(C)c1cccc(CS(=O)(=O)c2nnc(Nc3c4c(cc5c3CCC5)CCC4)[nH]2)c1 [Example 74]: ≥ 5.30

Record CCN(CC)CCN(C)S(=O)(=O)c1nnc(Nc2c3c(cc4c2CCC4)CCC3)[nH]1 [Example 80] , field pIC50: ≥ 6.00

Record CN1CCCCC1CCS(=O)(=O)c1nnc(Nc2c3c(cc4c2CCC4)CCC3)[nH]1 (stereo not drawn) [Example 59] , field pIC50: ≥ 6.30

Record O=S(=O)(NC1CCCNC1)c1nnc(Nc2c3c(cc4c2CCC4)CCC3)[nH]1 (stereo not drawn) [Example 112] , field pIC50: ≥ 5.30

* * *

assay: PK, intravenous administration; format: in vivo; conditions: rat, plasma, male Sprague Dawley rats, dose about 1 mg/kg, read-out: Vdss
Measured Parameter: log10(Vd) (log10 of the value in L/kg)
A value of 2 here means Vd of 100 in L/kg, since values are log10.

COc1cc(-c2ccc3c(c2Nc2nnc(S(=O)(=O)c4ccccc4C#N)[nH]2)CCC3)ccn1: 0.16
COc1cc(-c2cc(F)cc(C(C)C)c2Nc2nnc(S(=O)(=O)N3CCC(CN(C)C)C3)[nH]2)ccn1 (centres unmarked): 0.98

Record CC(C)c1cc(F)cc(-c2ccncc2)c1Cc1nnc(S(=O)(=O)N2CCC(CN(C)C)C2)[nH]1 (centres unmarked) , field log10(Vd): 0.42

Record CC(C)N1CCC2(C1)CN(S(=O)(=O)c1nnc(Nc3c4c(cc5c3CCC5)CCC4)[nH]1)C2 , field log10(Vd): 0.76

Record Cn1ccc(S(=O)(=O)c2nnc(Nc3c4c(cc5c3CCC5)CCC4)[nH]2)n1 , field log10(Vd): -0.39

Record CN1CCC(Oc2cc(-c3ccc4c(c3Nc3nnc(S(C)(=O)=O)[nH]3)CCC4)ccn2)CC1 , field log10(Vd): -0.03

Record CN(C)C1CCN(S(=O)(=O)c2nnc(Nc3c4c(c(Cl)c5c3CCC5)CCC4)[nH]2)CC1 , field log10(Vd): 1.03

Record COc1cc(-c2cc(F)cc(C(C)C)c2Cc2nnc(S(=O)(=O)N3CCC(CN(C)C)C3)[nH]2)ccn1 (centres unmarked) , field log10(Vd): 0.47

* * *

molecular target: NLRP3 (Homo sapiens); assay: Human whole blood IL1β release assay; assay type: cell-based; conditions: LPS 1 μg/ml, nigericin 10 μM, IL-1β AlphaLisa, 10 μM top dose (Example 2: top dose of 30 μM), read-out: HWB IC50
Measured Parameter: IC50

Below: 5 compounds and their reported IC50.
O=S(=O)(c1nnc(Nc2c3c(cc4c2CCC4)CCC3)[nH]1)N1CC[C@H](CN2CCCC2)C1: ≤ 1 µM
CC(C)(O)C1CCN(S(=O)(=O)c2nnc(Nc3c4c(cc5c3CCC5)CCC4)[nH]2)CC1: ≤ 10 µM
O=S(=O)(NCCN1CCC1)c1nnc(Nc2c3c(cc4c2CCC4)CCC3)[nH]1: ≤ 5 µM
O=S(=O)(c1nnc(Nc2c3c(cc4c2CCC4)CCC3)[nH]1)N1CC2(CCOC2)C1: ≤ 10 µM
CN(C1CNC1)S(=O)(=O)c1nnc(Nc2c3c(cc4c2CCC4)CCC3)[nH]1: ≤ 5 µM

Record CNCC1CN(S(=O)(=O)c2nnc(Nc3c4c(cc5c3CCC5)CCC4)[nH]2)C1 , field IC50: ≤ 0.5 µM

Record CN1CC2CN(S(=O)(=O)c3nnc(Nc4c5c(cc6c4CCC6)CCC5)[nH]3)CC2C1 (stereo not shown) , field IC50: ≤ 5 µM

Record O=S(=O)(c1nnc(Nc2c3c(cc4c2CCC4)CCC3)[nH]1)N1CC[C@H](CNC2CC2)C1 , field IC50: ≤ 10 µM

* * *

test: PK, intravenous administration; type: in vivo; conditions: rat, plasma, male Sprague Dawley rats, dose about 1 mg/kg
Measured Parameter: half-life (min)
Give your result in min as a bare value.

Below: 4 molecules and their reported half-life.
CC(C)N1CCC2(C1)CN(S(=O)(=O)c1nnc(Nc3c4c(cc5c3CCC5)CCC4)[nH]1)C2 [Example 264]: 113
CN1CCOCC12CCN(S(=O)(=O)c1nnc(Nc3c4c(cc5c3CCC5)CCC4)[nH]1)CC2 [Example 296]: 35.4
COc1cc(-c2ccc3c(c2Nc2nnc(S(=O)(=O)N4CC[C@H](C(C)(C)O)C4)[nH]2)CCC3)ccn1 [Example 231]: 19.6
Cc1cc(-c2cc(F)cc(C(C)C)c2Nc2nnc(S(=O)(=O)N3CCC(N(C)C)CC3)[nH]2)ccn1 [Example 302]: 80.4

Record CS(=O)(=O)c1nnc(Nc2c3c(cc4c2CCC4)CCC3)[nH]1 [Example 75] , field half-life: 30
